B1: LINE1-full (parent)
chain: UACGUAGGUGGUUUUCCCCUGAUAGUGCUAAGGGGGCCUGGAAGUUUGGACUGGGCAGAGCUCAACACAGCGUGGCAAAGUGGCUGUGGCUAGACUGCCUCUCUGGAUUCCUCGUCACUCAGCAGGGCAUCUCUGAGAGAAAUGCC

# Variants of: B1
# Measurement Notes: self-cleavage, relative activity (ratio to wild type); higher = more cleavage; in vitro, sequencing; the parent is a self-cleaving ribozyme
Field: self-cleavage. Provide a value for each of the variants that follow.

Ask: Given UACGUAGGUGGUUUUCCCCUGAUAGUGCUAAGGGGGCCUGAAAGUUUGGACUGGGCAGAGCUCAACACAGCGUGGCAAAGUGGCUGUGGCUAGACUGCCUCUCUGGAUUCCUCGUCACUCAGCAGGGCAUCUCUGAGAGAAGUGCC [G41A A142G] , respond with its self-cleavage.
Result: 1.18

Ask: Return self-cleavage for the following variant: UACGUAGGUGGUUUUCCCCUGAUAGUGCUAAGGGGGCCUGGAAGUUUGGACUGGGCAGAGCUCAACACAGCGUGGCAAAGUGGCUGUGGCUAGACUGCCUCUCUGGGUUCCUCGUCACUCAGCAGGCCAUCUCUGAGAGAAAUGCC [A107G G127C]
Result: 1.72

Ask: Complete the entry with self-cleavage for UACGUAGGUGGUUUUCCCCUGAUAGUGCUAAGGGGGCCUGGAAGCUUGGACUGGGCAGAGCUCAACACAGCGUGGCAAAGUGGCUGUGGCUAGACUGCCUCUCUGGGUUCCUCGUCACUCAGCAGGGCAUCUCUGAGAGAAAUGCC [U45C A107G]
Result: 1.73

Ask: Identify self-cleavage associated with the variant UACGUAGGUGGUUUUCCCCUGAAAGUGCUAAGGGGGCCUGGAAGUAUGGACUGGGCAGAGCUCAACACAGCGUGGCAAAGUGGCUGUGGCUAGACUGCCUCUCUGGAUUCCUCGUCACUCAGCAGGGCAUCUCUGAGAGAAAUGCC [U23A U46A]
Result: 0.6

Ask: In one line, give reported self-cleavage of the entry UACGUAGGUGGUUUUCCCCUGAUAGUGCUAGGGGGGCCUGGAAGUUUGGACUGGGCAGAGCUCAACACAGCGUGGCAAAGUGGCUGUGGCUAGACUGCCUCUCUGGAUUCCUCGUCACUCAGCAGGGCAUUUCUGAGAGAAAUGCC [A31G C131U] .
Result: 0.61

Ask: Answer with the recorded self-cleavage of UACGUAGGUGGUUUUCCCCUGAUAGUGCUAAGGGGGCCUGGAAGUUUGGACUGGGCAGAGCUCAACACAGCGUGGCAAAGUGGCUGUGGCUAGACCGCCUCUCUGGAUUCCUCGUCACUCAGCAGGGCAUCUCUGAGAGGAAUGCC [U96C A140G] only.
Result: 0.09

Ask: Retrieve self-cleavage measured for UACGUAGGUGGUUUUCCCCUGAUAGUGCUAAGGGCGCCUGGAAGUUUGGACUGGGCAGGGCUCAACACAGCGUGGCAAAGUGGCUGUGGCUAGACUGCCUCUCUGGAUUCCUCGUCACUCAGCAGGGCAUCUCUGAGAGAAAUGCC [G35C A59G] and print it.
Result: 0.19

Ask: Give the reported value of self-cleavage for this record: CACGUAGGUGGUUUUCCCCUGAUAGUGCUAAGGGGGCCUGGAAGUUUGGACUGGGCAGAGCUCAACACAGCGUGGCAAAGUGGCAGUGGCUAGACUGCCUCUCUGGAUUCCUCGUCACUCAGCAGGGCAUCUCUGAGAGAAAUGCC [U1C U85A]
Result: 0.03

Ask: Output self-cleavage of UACGUAGGUGGUUUUCCCCUGAUAGUGCUAAGGGGGCCUGGAAGUUUGGACUGGGCAGAGCUCAUCACUGCGUGGCAAAGUGGCUGUGGCUAGACUGCCUCUCUGGAUUCCUCGUCACUCAGCAGGGCAUCUCUGAGAGAAAUGCC [A65U A69U]
Result: 0.03

Ask: Determine from records and report self-cleavage for UACGUAGGUGGUUUUCCCCUGAUAGUGCUAAGGGGGCCCGGAAGUUAGGACUGGGCAGAGCUCAACACAGCGUGGCAAAGUGGCUGUGGCUAGACUGCCUCUCUGGAUUCCUCGUCACUCAGCAGGGCAUCUCUGAGAGAAAUGCC [U39C U47A]
Result: 1.15

Ask: # return recorded self-cleavage for input UACGUAGGUGGUUUUCCCCUGAUAGUGCUAAAGGGGCCUGGAAGUUUGGACUGGGCAGAGCUCAACACAGCGUGGCAAAGUGGCUGUGGCUAGACUGCCUCUCUGGAUUCCUCGUCACUCAGCAGGGCAUCUCUGGGAGAAAUGCC [G32A A136G]
Result: 1.35

Ask: Return self-cleavage for the following variant: UACGCAGGUGGUUUUCCCCUGAUAGUGCUAAGGGGGCCUGGAAGUUUGGACUUGGCAGAGCUCAACACAGCGUGGCAAAGUGGCUGUGGCUAGACUGCCUCUCUGGAUUCCUCGUCACUCAGCAGGGCAUCUCUGAGAGAAAUGCC [U5C G53U]
Result: 0.88

Ask: Name the recorded self-cleavage of the variant listed here: UACGUAGGUGGUUUUCCCCUGAUAGUGCUAAGGGGGCCUGGAAGUUUGGACUGGGCAGAGCUCAACACAGCGCGGCAAAGUGGCUGUGGCUAGACUGCCUCUCUGGAUUCCUCGUCACUCAGCAGUGCAUCUCUGAGAGAAAUGCC [U73C G126U]
Result: 1.85

Ask: Quick one: give measured self-cleavage for UACGUAGGUGGUUUUCCCCUGAUAGUGCUAAGGGGGCCUGGAAGUUUGGACUGGGCAGAGCUCAACACAGCGUGGCAAAGUUGCUGUGGCUAGACUGCCUCUCUGGAUUCCCCGUCACUCAGCAGGGCAUCUCUGAGAGAAAUGCC [G82U U112C]
Result: 1.18

Ask: Determine from records and report self-cleavage for UACGUAGGUGGUUUUCCCCUGAUAGUGCUAAGGGGGCCUGGAAGUUUGGACUGGGCAGAGCUCAACACAGCGUGGCAAAGUGGCUGUGGCUAGACUGCCUCUCUGGAUUCCCCGUCACUCAGCUGGGCAUCUCUGAGAGAAAUGCC [U112C A124U]
Result: 1.21

Ask: Return the recorded self-cleavage value; entry: UACGCAGGUGGUUUUCCCCUGAUAGUGCUAAGGGGGCCUGGAAGUUUGGACUGGGCAGAGCUCAACACAGCGUGGCAAAGGGGCUGUGGCUAGACUGCCUCUCUGGAUUCCUCGUCACUCAGCAGGGCAUCUCUGAGAGAAAUGCC [U5C U81G]
Result: 1.31

Ask: State its self-cleavage: UACGUAGGUGGUUUUCCCCUGAUAGUGCUAAGGGGGCCUGGAAAUUUGGACUGGGCAGAGCUCAACACAGCGUGGCAAAGUGGCUGUGGGUAGACUGCCUCUCUGGAUUCCUCGUCACUCAGCAGGGCAUCUCUGAGAGAAAUGCC [G44A C90G]
Result: 0.01

Ask: Identify the reported self-cleavage for the following entry. UGCGUAGGUGGUUUUCCCCUGAUAGUGCUAAGGGGGCCUGGAAGUUUGGACUGGGCAGAGCUCAACACAGCGUGGCAAAGUGGCUGUGGCUAGACUGCCUCUCUGGAUUCCUCGACACUCAGCAGGGCAUCUCUGAGAGAAAUGCC [A2G U115A]
Result: 1.08

Ask: Give the reported self-cleavage for this variant. UACGUAGGUGGUUUUCCCCUGAUAGUGCUAAGGGGGCCUGGAAGUUUGGACUGGGCAGAGCUCAACACAGCGUGGCAAAGUGGCUGUGGCUAGACUGCCUCUCUGUAUUCCUCGUCACUCAGCAGGGCAUCCCUGAGAGAAAUGCC [G106U U132C]
Result: 1.31

Ask: Fill in reported self-cleavage for this entry: CACGUAGGUGGUUUUCCCCUGAUAGUGCUAAGGGGGCCUGGAAGUUUGGACUGGGCAGAGCUCAUCACAGCGUGGCAAAGUGGCUGUGGCUAGACUGCCUCUCUGGAUUCCUCGUCACUCAGCAGGGCAUCUCUGAGAGAAAUGCC [U1C A65U]
Result: 0.06

Ask: // fetch self-cleavage given entry UACGUAGGUGGUUUUCCCCUGAUAGUGCUAAGGGGGCCUGGAAGUUUGGACUGGGCAGAGCUCAACACAGCGUGGCAAAGUGGCUGUGGCUAGACUGCCUCUCGGGAUUCCUCGUCACUCAGCAGGGCAUCACUGAGAGAAAUGCC [U104G U132A]
Result: 1.06

Ask: For UACGUAGGUGGUUCUCCCCUGAUAGUGCUAAGGGGGCCUGGAAGUUUUGACUGGGCAGAGCUCAACACAGCGUGGCAAAGUGGCUGUGGCUAGACUGCCUCUCUGGAUUCCUCGUCACUCAGCAGGGCAUCUCUGAGAGAAAUGCC [U14C G48U] , write its self-cleavage.
Result: 1.15

Ask: Identify measured self-cleavage corresponding to UGCGUAGGUGGUUUUCCCCUGAUAGUGCUAAGGGGGCCUGGAAGUUUGGACUGGGCAGUGCUCAACACAGCGUGGCAAAGUGGCUGUGGCUAGACUGCCUCUCUGGAUUCCUCGUCACUCAGCAGGGCAUCUCUGAGAGAAAUGCC [A2G A59U]
Result: 0.8

Ask: Answer with the recorded self-cleavage for the variant listed here: UACGUAGGUGGUUUUCCCCUGAUAGUGCUGAGGGGGCCUGGAAGCUUGGACUGGGCAGAGCUCAACACAGCGUGGCAAAGUGGCUGUGGCUAGACUGCCUCUCUGGAUUCCUCGUCACUCAGCAGGGCAUCUCUGAGAGAAAUGCC [A30G U45C]
Result: 1.38

Ask: Hello, please tell me recorded self-cleavage for this one: UACGUAGGUGGUUUUCCCCUGAUAGUGCUAAGGGGGCCUGGAAGUGUGGACUGGGCAGAGCUCAACACAGCGUGGCAAGGUGGCUGUGGCUAGACUGCCUCUCUGGAUUCCUCGUCACUCAGCAGGGCAUCUCUGAGAGAAAUGCC [U46G A79G]
Result: 1.23

Ask: Give recorded self-cleavage. UACGUAGGUGGUUUUCCCCUGAUAGUGCUAAGGGGGCCUGGAAGUUUGGACUGCGCAGAGCUCAACACAGCGUGGCAAAGUGGCUGUGGCUAGACUGCCUCUCUGGAUUCCUCGUCACUCAGCAGGGCAUCUCUGAGAGAAAUGCC [G54C]
Result: 0.86

Ask: Answer with the recorded self-cleavage for the variant listed here: UACGUAGGAGGUUUUCCCCUGAUAGUGCUAAGGGGGCCUGGAAGUUUGGACUGGGCAGAGCUCAGCACAGCGUGGCAAAGUGGCUGUGGCUAGACUGCCUCUCUGGAUUCCUCGUCACUCAGCAGGGCAUCUCUGAGAGAAAUGCC [U9A A65G]
Result: 0.21

Ask: State, in one line, measured self-cleavage of UACGUAGGUGGCUUUCCCCUGAUAGUGCUAAGGGGGCCUGGAAGUUUGGACUGGGCAGAGCUCAACACAGCGUGGCAAAGUGGCUGUGGCUAGACUGCCUCUCUGGAUUCCUCGUCACUCAGCAGGGCCUCUCUGAGAGAAAUGCC [U12C A129C]
Result: 1.99

Ask: Tell me self-cleavage reported for UACGUAGGUGGUUUUCCCCUGAUAGUGCUAAGGGGGCCUGCAAGUUUGGACUGGGCAGAGCUCAACACAGCGUGGCAAAGUGGCUGUGGCUAGACUGCCUCUCUGGAUUCCUCGACACUCAGCAGGGCAUCUCUGAGAGAAAUGCC [G41C U115A]
Result: 1.88

Ask: Given UACGUAGGUGGUUUUCCCCUGAUAGUGCUAAGGGGGCCUGGAAGUUUGGACUGGGCAGAGCUCAACGCAGCGUGGCAAAGUGCCUGUGGCUAGACUGCCUCUCUGGAUUCCUCGUCACUCAGCAGGGCAUCUCUGAGAGAAAUGCC [A67G G83C] , respond with its self-cleavage.
Result: 0.13

Ask: Please indicate self-cleavage recorded for UACGUAGGUGGUUUCCCCCUGAUAGUGCUAAGGGGGCCUAGAAGUUUGGACUGGGCAGAGCUCAACACAGCGUGGCAAAGUGGCUGUGGCUAGACUGCCUCUCUGGAUUCCUCGUCACUCAGCAGGGCAUCUCUGAGAGAAAUGCC [U15C G40A]
Result: 0.3

Ask: For the variant UACGUAGGUGGUUUUCGCCUGAUAGUGCUAAGGGGGCCUGGAAGUUUGGACUGGGCAGAGCUCAACACAGCGUGGCAAAGUGGCUGUGGCUAGACUGCCUCUCUGGACUCCUCGUCACUCAGCAGGGCAUCUCUGAGAGAAAUGCC [C17G U108C] , give its reported self-cleavage.
Result: 0.81

Ask: Please list self-cleavage recorded for the variant UACGCAGGUGGCUUUCCCCUGAUAGUGCUAAGGGGGCCUGGAAGUUUGGACUGGGCAGAGCUCAACACAGCGUGGCAAAGUGGCUGUGGCUAGACUGCCUCUCUGGAUUCCUCGUCACUCAGCAGGGCAUCUCUGAGAGAAAUGCC [U5C U12C]
Result: 0.86

Ask: Find the measured self-cleavage of UACGUAGGUGGUUUUCCCCUGAUAGUGCUAAGGGGGCCUGGAAGUUGGGACUGGGCAGAGCUCAACACAGCGUGGCAAAGUGGCUGUGGCUAGACUGCCUCUCUGGAUUCCUCGUCACUCAGCAGGGCGUCUCUGAGAGAAAUGCC [U47G A129G] and report it.
Result: 1.31

Ask: Give self-cleavage for UACGUAGGUGGUUUUCCCCUGAUAGUGCUAAGGGGGCCUGGAAGUUUGGACUGGGCAGAGCUCAACACAGCGUGGCAAAGUGGCCGUGGCUAGACUGCCUCUCUGGAUUCCUCGUCACUCAGCAGGGCAUCUCUGAGAGAAGUGCC [U85C A142G]
Result: 0.17

Ask: // Input: UACGUAGGUGGUUUUCCCCUGAUAGUGCUAAGGGGGCCUGGAAGUUUGGACUGGGCAGAGCUCAACACAGCGUGGCAAAGUGGCUGUGGCUAGACUGCCUCUCUGGAUUCCUCGUCGCUUAGCAGGGCAUCUCUGAGAGAAAUGCC [A117G C120U] . Output its self-cleavage only.
Result: 2.18
